- PROCEDURE_DETAILS: PET hydrolysis, aromatic products released after 48 h (umol product/mg enzyme); higher = more PET depolymerization activity
- ASSAY_SETUP: substrate: cryPow; 40 °C; pH 6.5
QUANTITY: PET hydrolysis

Record PET hydrolysis per entry; entries follow.
1. SNPTPTPTPTPTPTPTPGNNPFQRGPNPTLSFIEANSGPYSVRTSRVSSYTSGFGGGTIHYPTGQSGTMGAIVVIPGFVSAESSIEWWGPKLASHGFVVMTIDTNSGFDQPPSRARQINAALDYLVAQNRSSRSPVRGMIDTNRLGVVGWSMGGGGTLRVASEGRIKAAIPLAPWDTTSFRNVKAPTLIFACESDVIAPVGQHASPFYNELPSNISKAFVELNGGSHYCGNGGNSYNDVLSRFGVSWMKRFLDNDTRYSQFLCGPNHTSDRDISEYRGNCNY [ESM042]
2. VPVVPAQQENPYQRGPDPTPESVEAPRGSFAIEKATIARGSVQGFGGGTIYYPTDTAEGTFGAVAISPGFTESQSAISWYGERLATQGFVVFTIDTNGGLDQPDSRADQLLAALDFLTGSSEVKDRIDASRLGVLGHSMGGGGSLSAAKKRPALQAAVPLAPWHTNSNWSDVTVPTLIVGAENDAVAPVGMHAEPFYAGLTKAPEKAYLELKGADHFVTNSPNTVIAKSTLSWLKRFIDDDTRYDQFLCPPPKPDNDISEYRDTCPN [DP051]
3. ADNPHQRGPNPTQASITANRGTFATAETSVGGGNGFGAAKIYYPTDTSQGTFGAIAVVPGYTATWAAEGAWMGHWLASFGFVVIGIDTLNRNDFDVARGTQLLAALDYLTQRSSVRTRVDPNRLAVMGHSMGGGGTISAALRWPTLKAAIGLAPYSPSQTTSGLQVPTMLLAGQNDGTSTPASIISLYNNIPASTEKSYLELAGAGHGFPTSNNSVMTRKVIPWMKIFIDQDARYTQFLCPLQDWTGIRSYRSSCPLLPGATFSLAGSASGKCVDVPGRVQTNGTGLIIWTCNGAVNQQWTRTAAGELRIYDNAKCMDANASGPGTRVTINSCNGGNSQKWTVNANGTVTNAASGRCIDTGGTADNAPVVVNTCTGGTSQT [ESM163]

["< 3", "< 3", "< 3"]
